src = patent US11957687B2

- test_target: HSD17B13 (Homo sapiens (Human), UniProt Q7Z5P4)
- Sequence (Q7Z5P4 other isoform, or with tags, fused parts or gaps): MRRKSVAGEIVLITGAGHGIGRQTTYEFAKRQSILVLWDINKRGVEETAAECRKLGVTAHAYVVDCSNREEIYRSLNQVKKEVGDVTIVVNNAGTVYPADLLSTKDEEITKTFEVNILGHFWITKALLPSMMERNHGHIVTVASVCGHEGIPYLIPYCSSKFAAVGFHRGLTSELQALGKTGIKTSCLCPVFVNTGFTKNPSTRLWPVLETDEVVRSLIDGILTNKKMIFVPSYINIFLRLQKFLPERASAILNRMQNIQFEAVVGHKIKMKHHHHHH
- measurement_notes: HSD17B13 enzymatic inhibition assay (150 nM or 50 nM HSD17B13)
- Format: biochemical
- condition_context: 50 nM HSD17B13; read-out: Inhibition of 50 nM of HSD17B13 IC50
value_kind: IC50

molecule	test_target	obs_value
C=CCc1cc(C(=O)NC2c3ccc(C)cc3Oc3cc(C)ccc32)c(=O)[nH]c1C(F)(F)F	HSD17B13 (Homo sapiens (Human), UniProt Q7Z5P4)	50 nM
O=C(NC1c2ccccc2-c2ccccc21)c1ccc(C(F)(F)F)[nH]c1=O	HSD17B13 (Homo sapiens (Human), UniProt Q7Z5P4)	530 nM
O=C(NC1c2ccccc2Sc2ccc(Cl)cc21)c1ccc(C(F)(F)F)[nH]c1=O (stereo not shown)	HSD17B13 (Homo sapiens (Human), UniProt Q7Z5P4)	390 nM
O=C(NC1CCSc2ccccc21)c1ccc(C(F)(F)F)[nH]c1=O (stereo not shown)	HSD17B13 (Homo sapiens (Human), UniProt Q7Z5P4)	3750 nM
CCCc1cc(C(F)(F)F)[nH]c(=O)c1C(=O)NC1c2ccc(Cl)cc2Oc2cccc(Cl)c21 (stereo not shown)	HSD17B13 (Homo sapiens (Human), UniProt Q7Z5P4)	3440 nM
Cc1ccc2c(c1)Oc1cc(C)ccc1C2NC(=O)c1cc(N2CCN(C)CC2)c(C(F)(F)F)[nH]c1=O	HSD17B13 (Homo sapiens (Human), UniProt Q7Z5P4)	110 nM

Checklist item: IC50 tested on HSD17B13 (Homo sapiens (Human), UniProt Q7Z5P4), entry Cc1ccc2c(c1)Sc1cc(C)ccc1C2NC(=O)c1cc(OC2CCOCC2)c(C(F)(F)F)[nH]c1=O , value?
10 nM

Notebook: pull reported IC50 for HSD17B13 (Homo sapiens (Human), UniProt Q7Z5P4), entry CCCC1CC(NC(=O)c2ccc(C(F)(F)F)[nH]c2=O)c2cc(C)ccc2S1 (stereo not shown)
130 nM

Which measured IC50 belongs to Cc1cc(C(F)(F)F)[nH]c(=O)c1C(=O)NC(c1ccccc1)c1ccccc1 , tested on HSD17B13 (Homo sapiens (Human), UniProt Q7Z5P4)?
5790 nM

Can you look up IC50 on HSD17B13 (Homo sapiens (Human), UniProt Q7Z5P4) for CCCC1CCc2cc(Cl)ccc2C1NC(=O)c1ccc(C(F)(F)F)[nH]c1=O (stereo not shown) ?
190 nM

Lab note: need IC50 with HSD17B13 (Homo sapiens (Human), UniProt Q7Z5P4) for entry Cc1ccc2c(c1)Oc1cccc(C)c1C2NC(=O)c1cc(N2CCOCC2)c(C(F)(F)F)[nH]c1=O (stereo not shown) , please look it up.
560 nM

---

Reported log10 IC50 values for the following molecules.
- test_target: HSD17B13 (Homo sapiens (Human), UniProt Q7Z5P4)
- measurement_notes: HSD17B13 enzymatic inhibition assay (150 nM or 50 nM HSD17B13)
- Assay type: biochemical
- condition_context: 50 nM HSD17B13; read-out: Inhibition of 50 nM of HSD17B13 IC50
Log scale reminder: IC50 in nM, then log10 taken.

Worked cases, log10 IC50 given:
molecule	log10 IC50
N#Cc1cccc2c1C(NC(=O)c1ccc(C(F)(F)F)[nH]c1=O)c1ccccc1O2 (stereo not drawn)	3.00
O=C(NC1c2ccccc2Oc2cccc(Cl)c21)c1ccc(C(F)(F)F)[nH]c1=O (stereo not drawn)	2.78
COc1ccc2c(c1)Oc1cc(OC)ccc1C2NC(=O)c1ccc(C(F)F)[nH]c1=O	2.53
O=C(NC1c2ccccc2COc2ccccc21)c1ccc(C(F)(F)F)[nH]c1=O (stereo not drawn)	3.62
CCc1cccc2c1C(NC(=O)c1ccc(C(F)(F)F)[nH]c1=O)c1ccccc1O2 (stereo not drawn)	2.92
O=C(NC1c2ccc(Cl)cc2Oc2cc(Cl)ccc21)c1ccc(C(F)(F)F)[nH]c1=O	2.08
CC(C)(C)OC(=O)NCCN1Cc2ccccc2C(NC(=O)c2ccc(C(F)(F)F)[nH]c2=O)C1 (stereo not drawn)	3.74
O=C(NC1CN(CCOCc2ccccc2)Cc2ccccc21)c1ccc(C(F)(F)F)[nH]c1=O (stereo not drawn)	2.98

Looking for the measured log10 IC50 of CC[C@@H]1C[C@H](NC(=O)c2ccc(C(F)(F)F)[nH]c2=O)c2ccc(C)cc2N1 , can you help?
1.78

Could you tell me which log10 IC50 is on file for CCC[C@@H]1C[C@@H](NC(=O)c2ccc(C(F)(F)F)[nH]c2=O)c2cc(C)ccc2N1 ?
2.48

What does the record list as log10 IC50 for O=C(NC(c1ccccc1)c1ccc(C(F)(F)F)cc1)c1ccc(C(F)(F)F)[nH]c1=O (stereo not drawn) ?
3.11

---

HSD17B1 (Homo sapiens (Human), UniProt P14061) data, read-out pIC50
Sequence (P14061 other isoform, or with tags, fused parts or gaps): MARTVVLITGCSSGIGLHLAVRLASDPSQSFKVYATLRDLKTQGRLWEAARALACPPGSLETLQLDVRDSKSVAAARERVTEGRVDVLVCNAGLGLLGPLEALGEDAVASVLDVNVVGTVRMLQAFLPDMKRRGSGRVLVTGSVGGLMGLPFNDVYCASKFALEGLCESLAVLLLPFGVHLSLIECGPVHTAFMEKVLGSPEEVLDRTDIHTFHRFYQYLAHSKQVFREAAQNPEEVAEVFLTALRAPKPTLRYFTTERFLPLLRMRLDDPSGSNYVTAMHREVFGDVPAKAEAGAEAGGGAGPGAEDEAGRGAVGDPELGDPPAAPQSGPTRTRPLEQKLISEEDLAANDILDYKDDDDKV
Would you please state pIC50, meaning minus log10 of the concentration in mol/L, as a bare number?

Look over these answered cases.
compound	test_target	pIC50
Cc1ccc2c(c1)Oc1cnccc1C2NC(=O)c1ccc(C(F)(F)F)[nH]c1=O (centres unmarked)	HSD17B1 (Homo sapiens (Human), UniProt P14061)	5.38
O=C(NC1c2ccc(Cl)cc2Oc2cc(Cl)ccc21)c1ccc(C(F)(F)F)[nH]c1=O	HSD17B1 (Homo sapiens (Human), UniProt P14061)	5.37
Cc1ccc(C(NC(=O)c2cc(C)c(C(F)(F)F)[nH]c2=O)c2ccc(C)cc2)cc1	HSD17B1 (Homo sapiens (Human), UniProt P14061)	4.95
Cc1ccc2c(c1)Oc1cc(C)ccc1C2NC(=O)c1cc(-c2cnccn2)c(C(F)(F)F)[nH]c1=O	HSD17B1 (Homo sapiens (Human), UniProt P14061)	5.48

Lookup: pIC50 / HSD17B1 (Homo sapiens (Human), UniProt P14061) / O=C(NC(c1ccccc1)c1ccc2c(c1)COC2)c1ccc(C(F)(F)F)[nH]c1=O (centres unmarked)
4.95

---

- test_target: HSD17B13 (Homo sapiens (Human), UniProt Q7Z5P4)
- measurement_notes: HSD17B13 enzymatic inhibition assay (150 nM or 50 nM HSD17B13)
- Format: biochemical
- condition_context: 50 nM HSD17B13; read-out: Inhibition of 50 nM of HSD17B13 IC50
The following compounds are shown together with reported pIC50 values.
Would you please state pIC50, meaning minus log10 of the concentration in mol/L, as a bare number?

Answered examples (4):
compound	pIC50
Cc1ccc2c(c1)c(NC(=O)c1ccc(C(F)(F)F)[nH]c1=O)cn2C [Compound 376]	5.55
Cc1ccc2c(c1)Oc1ccccc1C2NC(=O)c1ccc(C(F)F)[nH]c1=O (centres unmarked) [Compound 279]	6.74
CCC1Cc2cc(OC)ccc2C1NC(=O)c1ccc(C(F)(F)F)[nH]c1=O (centres unmarked) [Compound 295]	7.00
Cc1ccc2c(c1)Oc1cc(C)ccc1C2NC(=O)c1cc(N2CCOCC2)c(C(F)(F)F)[nH]c1=O [Compound 438]	7.30

Record lookup: for HSD17B13 (Homo sapiens (Human), UniProt Q7Z5P4), what pIC50 belongs to Cc1ccc([C@H](NC(=O)c2ccc(C(F)(F)F)[nH]c2=O)[C@@H]2CCCOC2)cc1 [Compound 397] ?
5.53

API: value(readout= pIC50, system= HSD17B13 (Homo sapiens (Human), UniProt Q7Z5P4), query= COC1Cc2cc(C)ccc2C1NC(=O)c1ccc(C(F)(F)F)[nH]c1=O (centres unmarked) [Compound 351] )
6.29

# get_value(readout= pIC50, system= HSD17B13 (Homo sapiens (Human), UniProt Q7Z5P4)) for CSc1cccc(C(NC(=O)c2ccc(C(F)(F)F)[nH]c2=O)c2ccc(C)cc2)c1 (centres unmarked) [Compound 445]
6.64

---

Overview of recorded microsomal CLint at 1 μM for various compounds
- measurement_notes: Microsome stability assay, human liver microsomes
- Assay type: in vitro ADME
- condition_context: human, human liver microsomes, pooled; 1 μM compound, 0.5 mg/mL microsomal protein, NADPH, 37° C.; read-out: Microsome Stability Human liver microsomes Cl
Number only, in µL/min/mg; omit the unit.

compound	value_kind	obs_value
CC[C@@H]1C[C@H](NC(=O)c2ccc(C(F)(F)F)[nH]c2=O)c2ccc(C)cc2N1 [Compound 366]	microsomal CLint at 1 μM	44.2

Then there is this compound:
Requested read-out: microsomal CLint at 1 μM. Entry: CCC[C@H]1Oc2cc(C)ccc2[C@@H]1NC(=O)c1ccc(C(F)(F)F)[nH]c1=O [Compound 358]
154

---

- measurement_notes: Microsome stability assay, mouse liver microsomes
- Type: in vitro ADME
- condition_context: mouse, mouse liver microsomes, pooled; 1 μM compound, 0.5 mg/mL microsomal protein, NADPH, 37° C.; read-out: Microsome Stability Mouse liver microsomes Cl
value_kind: microsomal CLint at 1 h, 1 µM (µL/min/mg)
Answer in µL/min/mg, number only, no unit symbol.

molecule	microsomal CLint at 1 h, 1 µM [µL/min/mg]
CCC1CCc2cc(C)ccc2C1NC(=O)c1ccc(C(F)(F)F)[nH]c1=O (centres unmarked)	43.6

Need microsomal CLint at 1 h, 1 µM, item O=C(NC(c1ccccc1)c1ccc(CC(F)(F)F)cc1)c1ccc(C(F)(F)F)[nH]c1=O (centres unmarked)
18.6

Can you share its microsomal CLint at 1 h, 1 µM? I mean this molecule: CCC[C@@H]1C[C@H](NC(=O)c2ccc(C(F)(F)F)[nH]c2=O)c2ccc(C)cc2N1
18.1

I have this molecule here, COc1ccc2c(c1)Sc1ccccc1C2NC(=O)c1ccc(C(F)F)[nH]c1=O (centres unmarked) , and I need its recorded microsomal CLint at 1 h, 1 µM.
68.2

# input molecule: COc1ccc2c(c1)Oc1cnccc1C2NC(=O)c1ccc(C(F)(F)F)[nH]c1=O (centres unmarked) ; wanted: its microsomal CLint at 1 h, 1 µM
24.6

Name the reported microsomal CLint at 1 h, 1 µM value associated with the molecule CCCC1Cc2ccc(C)cc2C1NC(=O)c1ccc(C(F)(F)F)[nH]c1=O (centres unmarked)
21.3

Give its microsomal CLint at 1 h, 1 µM value. Item: Cc1ccc2c(c1)Sc1cc(C)ccc1C2NC(=O)c1cc(-c2ccccc2)c(C(F)(F)F)[nH]c1=O
9.6

# get_value(readout='microsomal CLint at 1 h, 1 µM', item= CCC1CCc2cc(Cl)ccc2C1NC(=O)c1ccc(C(F)(F)F)[nH]c1=O (centres unmarked) )
35.4
